System: SNB-19 CNS
Experiment: NCI-60 one-dose screen, 48 h (100 = growth as untreated, 0 = no growth, -100 = all killed)
Experimental Context: 10 µM unless noted
This is part of a sample that, as a whole, favours compounds with a hit. Of some 83,000 tested, about 20% had one in any assay.
For each record, check the reported growth: if it is below 90% write Y, else write N.

>>> qualitative_label("CCn1c(SC)nnc1-c1cc2c([nH]c3ccccc32)c(-c2cccc(O)c2)n1")
"Y"
>>> qualitative_label("COc1cc2c(cc1OC)-c1c(oc3c4c(ccc3c1=O)OC(C)(C)C=C4)CO2")
"Y"
>>> qualitative_label("NCC(=O)NS(=O)(=O)OC[C@H]1O[C@@H](n2cnc3c(N)ncnc32)[C@H](O)[C@@H]1O")
"Y"
>>> qualitative_label("N#CC1=C(N)Oc2c(ccc3ccccc23)C1c1cc(=O)oc2ccc(Cl)cc12 (centres undefined)")
"Y"
>>> qualitative_label("C=C1C(=O)O[C@H]2[C@H]1CC/C(COC(=O)c1cc(OC)c(OC)c(OC)c1)=C\\CC[C@@]1(C)O[C@@H]21")
"Y"
>>> qualitative_label("O=C1C(Cl)=C(Nc2ccccc2)C(=O)C(Cl)=C1Nc1ccccc1")
"N"
>>> qualitative_label("COc1cc(-c2nc3sc(C)cn3c2/C=C2\\C(=O)Nc3ccccc32)c(Br)c(OC)c1OC")
"Y"
>>> qualitative_label("C#C[C@@]1(O)[C@@H](CO)O[C@@H](n2cc(Br)c3c(Cl)ccnc32)[C@@H]1O")
"Y"
>>> qualitative_label("Cn1cnc([N+](=O)[O-])c1N1c2ccncc2Sc2ccncc21")
"N"
>>> qualitative_label("CN(C)c1ccc2cc(-c3nc4ccccc4s3)c(N)nc2c1")
"Y"
>>> qualitative_label("O=[N+]([O-])c1ccccc1NC1c2ccccc2Oc2ccccc21")
"Y"
>>> qualitative_label("O=c1[nH]ccc2nc(N3CCC(O)CC3)nc(Nc3cccc(C(F)(F)F)c3)c12")
"N"
>>> qualitative_label("Clc1ccc(OCc2nc(-c3ccccc3)n[nH]2)c(Cl)c1")
"N"
>>> qualitative_label("CCOC(=O)c1noc2c1CCc1cn(Cc3cc(OC)cc(OC)c3)cc1-2")
"N"
>>> qualitative_label("Cc1cccc(NC(=O)CCc2ccc(N3C(N)=NC(N)=NC3(C)C)cc2)c1")
"Y"
>>> qualitative_label("Cc1[nH]c2ccc(F)cc2c1CCNC(=O)C1CCN(C(=O)c2ccc(-c3ccccc3)cc2)CC1")
"Y"
>>> qualitative_label("COc1ccc2c(c1)C(=O)/C(=C/c1cccc(OCC(=O)c3ccccc3)c1)O2")
"N"
>>> qualitative_label("CC1=C2C(=C[C@@](C)(CO)[C@@H]2OC(=O)N(C)CCN(C)C(=O)OC(C)(C)C)C(=O)[C@](C)(O)C12CC2")
"Y"
>>> qualitative_label("CC(=O)Oc1ccc(C(OC(C)=O)OC(C)=O)cc1")
"N"
>>> qualitative_label("O=C(NOC1OC(CO)C(O)C(O)C1O)Nc1ccccc1 (centres undefined)")
"N"
>>> qualitative_label("O=C1COc2ccccc2C(=O)N1CCCCN1CCCCC1")
"N"
>>> qualitative_label("O=C(Nc1cccc([N+](=O)[O-])c1)c1ccc2ccccc2c1O")
"Y"
>>> qualitative_label("O=C1C(SCCO)=C(SCCO)C(=O)N1c1ccc(-c2ccccc2)cc1")
"N"
>>> qualitative_label("O=C(NC(=S)Nc1ccc(Cl)cc1)c1ccccc1")
"N"
>>> qualitative_label("[2H]c1nc(Nc2ncc(F)c(-c3cc(F)c4nc(C)n(C(C)C)c4c3)n2)c([2H])c([2H])c1CN1CCN(CC)CC1")
"Y"
>>> qualitative_label("CC(/C=C/C=C(\\C)[C@H](O)[C@H](C)C(=O)O[C@H]1C[C@H](C)C=C2C=C[C@@]3(C)O[C@@H](O)CC(=O)[C@]3(C)[C@H]21)=C\\C=C\\C(=O)O")
"Y"
>>> qualitative_label("O=C(Nc1cccc([N+](=O)[O-])c1)Nc1cccc([N+](=O)[O-])c1")
"Y"
>>> qualitative_label("S=c1n(CNc2ccc(Cl)nn2)nc(-c2cc(Cl)cc(Cl)c2Cl)n1/N=C/c1ccc(Cl)cc1")
"N"
>>> qualitative_label("COc1ccccc1P(c1ccccc1OC)c1ccccc1OC")
"Y"
>>> qualitative_label("O=C(Nc1cccc(-n2ccc3c(NC(=O)c4ccccc4)nccc32)c1)c1cc(N2CCOCC2)cc(C(F)(F)F)c1")
"Y"
>>> qualitative_label("NC(CSC(c1ccccc1)(c1ccccc1)c1ccc(F)cc1)C(=O)O (centres undefined)")
"Y"
>>> qualitative_label("Nc1nccc2c1ccn2-c1cccc(NC(=O)c2ccc(N3CCOCC3)c(C(F)(F)F)c2)c1")
"Y"
>>> qualitative_label("O=C1CCC(=O)N1C1CCCCC1")
"N"
>>> qualitative_label("COc1ccc(C(=O)NC(=O)Nc2ccc3c(c2)NC(=O)/C3=C\\c2[nH]c(C)c(C(=O)O)c2C)cc1")
"Y"
